B1: VH:VL chains; a variant is named by its letters at X, in order (parent)
chain 1: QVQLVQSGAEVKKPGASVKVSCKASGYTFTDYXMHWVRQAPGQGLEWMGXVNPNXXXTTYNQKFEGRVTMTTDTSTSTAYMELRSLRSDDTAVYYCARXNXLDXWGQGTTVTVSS
chain 2: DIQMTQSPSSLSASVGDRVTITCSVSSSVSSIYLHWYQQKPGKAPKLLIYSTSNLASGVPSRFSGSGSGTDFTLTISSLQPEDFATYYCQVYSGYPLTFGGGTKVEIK

Variants of: B1
experimentalDetails: yeast display scFab, FACS + sequencing
conditionDetails: with MET
The other results are listed elsewhere or left out. The true hit rate is not given.

{"mutationAnnotation": "YRRRGVGD", "antigen binding call": "binds"}
{"mutationAnnotation": "VEGGGSVD", "antigen binding call": "no binding"}
{"mutationAnnotation": "YAAETDVF", "antigen binding call": "no binding"}
